Study Target: Glucose-dependent insulinotropic receptor (Homo sapiens)
Sequence (Q8TDV5 whole entry): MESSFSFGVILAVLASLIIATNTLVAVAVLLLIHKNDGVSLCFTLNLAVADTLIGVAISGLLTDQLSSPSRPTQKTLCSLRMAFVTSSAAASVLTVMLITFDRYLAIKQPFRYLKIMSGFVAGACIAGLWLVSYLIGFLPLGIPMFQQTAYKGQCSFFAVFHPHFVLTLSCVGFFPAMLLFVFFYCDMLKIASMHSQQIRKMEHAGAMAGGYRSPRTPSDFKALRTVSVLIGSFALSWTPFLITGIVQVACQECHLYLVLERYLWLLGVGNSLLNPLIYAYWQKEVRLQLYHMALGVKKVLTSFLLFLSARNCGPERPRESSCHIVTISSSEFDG
Experiment Summary: Agonist activity against human GPR119 receptor expressed in HEK293 cells assessed as beta-lactamase production by cAMP response element assay
Type: functional, cell-based
Observable: EC50 (nM)

Illustrative cases are given below, each with its answer.
>>> observed_value("CC1(OC(=O)N2CCC([C@@H](F)CNC(=O)Cc3c(F)ccc(F)c3F)CC2)CC1")
1380
>>> observed_value("CC(CNC(=O)Cc1ccccc1)C1CCN(C(=O)OC(C)(C)C)CC1 (stereo unspecified)")
5980
>>> observed_value("CC(CNC(=O)Cc1ccc(S(C)(=O)=O)cc1)C1CCN(C(=O)OC(C)(C)C)CC1 (stereo unspecified)")
884
>>> observed_value("CC(CNC(=O)Cc1c(F)cccc1F)C1CCN(C(=O)OC(C)(C)C)CC1 (stereo unspecified)")
120
>>> observed_value("CC(CNC(=O)Cc1ccc(-n2cnnn2)cc1)C1CCN(C(=O)OC(C)(C)C)CC1 (stereo unspecified)")
267

1. CC(C)OC(=O)N1CCC(CCNC(=O)Cc2c(F)ccc(F)c2F)CC1
2. CC1(OC(=O)N2CCC([C@H](F)CNC(=O)Cc3c(F)ccc(F)c3F)CC2)CC1
Lookup: Of the pair 1 and 2 , name the member with the lesser recorded EC50. To answer, give the label that identifies your chosen option.
Found: 2

###

Experiment Summary: Intrinsic clearance in human liver microsomes
Assay type: ADME, Microsome
// values below are reported CLint scaled

// solved cases for CLint scaled follow
>>> observed_value("CC(CNC(=O)Cc1ccccc1F)C1CCN(C(=O)OC(C)(C)C)CC1 (stereo not drawn)")
"> 300 mL/min/kg"
>>> observed_value("CC(CNC(=O)Cc1cccc(F)c1)C1CCN(C(=O)OC(C)(C)C)CC1 (stereo not drawn)")
"> 300 mL/min/kg"
>>> observed_value("CC(CNC(=O)Cc1cc(F)ccc1F)C1CCN(C(=O)OC(C)(C)C)CC1 (stereo not drawn)")
"> 300 mL/min/kg"
>>> observed_value("CC(CNC(=O)Cc1ccc(-n2cnnn2)cc1)C1CCN(C(=O)OC(C)(C)C)CC1 (stereo not drawn)")
"> 270 mL/min/kg"
>>> observed_value("CC(CNC(=O)Cc1ccccc1)C1CCN(C(=O)OC(C)(C)C)CC1 (stereo not drawn)")
"247 mL/min/kg"

Lookup: Fill in CLint scaled for record CC(CNC(=O)Cc1cccc(F)c1F)C1CCN(C(=O)OC(C)(C)C)CC1 (stereo not drawn)
Found: > 300 mL/min/kg

Lookup: Please look at this molecule and report its CLint scaled: CC(C)OC(=O)N1CCC(C(C)CNC(=O)Cc2c(F)ccc(F)c2F)CC1 (stereo not drawn)
Found: 205 mL/min/kg

Lookup: Please report the measured CLint scaled for `C[C@H](CNC(=O)Cc1c(F)ccc(F)c1F)C1CCN(C(=O)OC2(C)CC2)CC1`
Found: > 300 mL/min/kg

###

Study Target: Glucose-dependent insulinotropic receptor (Homo sapiens)
Experiment Summary: Agonist activity against human GPR119 receptor expressed in HEK293 cells assessed as beta-lactamase production by cAMP response element assay
Observable: EC50 (µM)

1. CC(CNC(=O)Cc1c(F)ccc(F)c1F)C1CCN(C(=O)OC(C)(C)C)CC1 (centres undefined)
2. CC(CNC(=O)Cc1cccc(F)c1)C1CCN(C(=O)OC(C)(C)C)CC1 (centres undefined)
3. CC(C)OC(=O)N1CCC(C(C)CNC(=O)Cc2c(F)ccc(F)c2F)CC1 (centres undefined)
Lookup: Rank the 3 compounds shown above by EC50, smallest number first. Order the labels as requested and give them as your answer.
Found: 1, 3, 2
(1: 0.013 µM, 3: 0.032 µM, 2: 0.34 µM)

These measurements were taken from ChEMBL document CHEMBL1681688.
